Reference source: PubChem BioAssay (NCI)

system: HCC-2998 colon; test: NCI-60 one-dose screen, 48 h (100 = growth as untreated, 0 = no growth, -100 = all killed); conditions: 10 µM unless noted
The panel holds about 83,000 compounds, 20% with a hit somewhere; the sample as a whole holds those more often. The source made the active and inactive calls. Rule for the calls: active = growth percent below 10; inactive = the rest.
reported-endpoint: growth

In [3]: df
Out[3]:
                                   molecule  reported_endpoint        data_value
0  CC(=O)c1ccc2c(c1)C1C=CCC1[C@H](c1cc3c(cc1Br)OCO3)N2 (some centres undefined)             growth    7.12% (active)
1  COc1ccc(C[C@H](N)C(=O)N[C@@H]2[C@@H](CO)OC(n3cnc4c(N(C)C)ncnc43)[C@@H]2O)cc1 (some centres undefined)             growth   -94.6% (active)
2  CCc1ccc(C2=C/C(=C/c3ccc(Cl)cc3)C(=O)N2CCc2ccc(S(N)(=O)=O)cc2)cc1             growth  24.8% (inactive)

Here's the next entry for you.
Input: Sample C=C1C(=O)O[C@H]2[C@H]1CC/C(COC(=O)OC/C1=C/CC[C@@]3(C)O[C@H]3[C@H]3OC(=O)[C@@H](CN(C)C)[C@@H]3CC1)=C\CC[C@@]1(C)O[C@@H]21 — what was its growth?
Output: 79.8% (inactive)
